test: Single dose PK in healthy subjects (Cohorts 1, 2, S1 and S2), plasma; assay type: in vivo, human; conditions: human, plasma, intravenous, 28 mg; 6 hr; read-out: Plasma concentration, Median

smiles repr: COC(=O)N1CCC[C@H](NS(C)(=O)=O)[C@@H]1CO[C@H]1CC[C@@H](c2ccccc2)CC1
concentration at 6 hr / ng/mL: 48

###

assay: Single dose PK in patients with narcolepsy (Cohorts 5, 6 and 7), plasma; assay type: in vivo, human; conditions: human, plasma, intravenous, 11.2 mg, Cmpd A 11.2 mg; Median; Cohort 5, 6, 7

smiles repr: COC(=O)N1CCC[C@H](NS(C)(=O)=O)[C@@H]1CO[C@H]1CC[C@@H](c2ccccc2)CC1
AUC(0-inf), ng·h/mL: 202

###

experiment: Single dose PK in patients with narcolepsy (Cohorts 5, 6 and 7), plasma; format: in vivo, human; conditions: human, plasma, iv, 11.2 mg; 1 hr; NT1, single 9 h IV infusion; read-out: Plasma concentration, Median
recorded metric: concentration at 1 h (ng/mL)

molecule: COC(=O)N1CCC[C@H](NS(C)(=O)=O)[C@@H]1CO[C@H]1CC[C@@H](c2ccccc2)CC1 [Compound A]
value observed: 14.3

###

experiment: Single dose PK in healthy subjects (Cohorts 1, 2, S1 and S2), plasma; format: in vivo, human; details: human, plasma, intravenous, 7 mg; 1.5 hr After End of Infusion; read-out: Plasma concentration, Median
Source text: […]
recorded metric: concentration at 1.5 h after end of infusion (ng/mL)

smiles repr: COC(=O)N1CCC[C@H](NS(C)(=O)=O)[C@@H]1CO[C@H]1CC[C@@H](c2ccccc2)CC1
unit: ng/mL
value observed: 4.5

###

experiment: Single dose PK in patients with narcolepsy (Cohorts 5, 6 and 7), plasma; type: in vivo, human; conditions: human, plasma, iv, 44.8 mg; 6 hr; NT1, single 9 h IV infusion; read-out: Plasma concentration, Median

smiles repr: COC(=O)N1CCC[C@H](NS(C)(=O)=O)[C@@H]1CO[C@H]1CC[C@@H](c2ccccc2)CC1
unit: ng/mL
concentration at 6 h: 88.3

###

assay: Single dose PK in healthy subjects (Cohorts 1, 2, S1 and S2), plasma; type: in vivo, human; settings: human, plasma, iv, 134.4 mg, 134.4 mg single IV infusion, healthy subjects; read-out: Cmax Geo Mean

smiles repr: COC(=O)N1CCC[C@H](NS(C)(=O)=O)[C@@H]1CO[C@H]1CC[C@@H](c2ccccc2)CC1
Cmax: 305 ng/mL

###

assay: Single dose PK in patients with narcolepsy (Cohorts 5, 6 and 7), plasma; format: in vivo, human; conditions: human, plasma, intravenous, 11.2 mg, Cmpd A 11.2 mg; Mean; Cohort 5, 6, 7
recorded metric: Tmax (h)

smiles repr: COC(=O)N1CCC[C@H](NS(C)(=O)=O)[C@@H]1CO[C@H]1CC[C@@H](c2ccccc2)CC1
value observed: 7.75

###

experiment: Single dose PK in healthy subjects (Cohorts 1, 2, S1 and S2), plasma; assay type: in vivo, human; details: human, plasma, intravenous, 14 mg; 3 hr; read-out: Plasma concentration, Q3

smiles repr: COC(=O)N1CCC[C@H](NS(C)(=O)=O)[C@@H]1CO[C@H]1CC[C@@H](c2ccccc2)CC1
concentration at 3 h / ng/mL: 39

###

assay: Single dose PK in patients with narcolepsy (Cohorts 5, 6 and 7), plasma; assay type: in vivo, human; settings: human, plasma, intravenous, 44.8 mg, Cmpd A 44.8 mg; Median; Cohort 5, 6, 7
recorded metric: Tmax

smiles repr: COC(=O)N1CCC[C@H](NS(C)(=O)=O)[C@@H]1CO[C@H]1CC[C@@H](c2ccccc2)CC1
value observed: 6.5 h

Data origin: patent US20220339143A1
